Experimental system: human GPR120 (Homo sapiens, UniProt Q5NUL3)
Construct: host or cells: CHO-K1
Protocol description: GPR120 β-Arrestin Recruitment Assay (PathHunter, CHO-K1 cells)
Assay type: cell-based
Cond: pEC50=−log(EC50) from curve fit; CHO-K1 cells, 90 min incubation; read-out: β-Arr pEC50 (converted)
Sequence (Q5NUL3 1-377 isoform Q5NUL3-1): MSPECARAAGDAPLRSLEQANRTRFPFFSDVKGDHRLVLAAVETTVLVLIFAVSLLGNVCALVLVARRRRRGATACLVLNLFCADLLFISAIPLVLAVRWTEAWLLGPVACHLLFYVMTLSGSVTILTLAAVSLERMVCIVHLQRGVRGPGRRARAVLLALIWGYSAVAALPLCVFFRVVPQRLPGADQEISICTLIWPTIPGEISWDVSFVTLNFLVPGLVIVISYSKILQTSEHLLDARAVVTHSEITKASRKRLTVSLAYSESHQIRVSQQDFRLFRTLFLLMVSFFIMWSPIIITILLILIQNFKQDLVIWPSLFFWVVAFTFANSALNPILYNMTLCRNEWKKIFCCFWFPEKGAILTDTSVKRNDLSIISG
Sequence (P32121 whole entry partner): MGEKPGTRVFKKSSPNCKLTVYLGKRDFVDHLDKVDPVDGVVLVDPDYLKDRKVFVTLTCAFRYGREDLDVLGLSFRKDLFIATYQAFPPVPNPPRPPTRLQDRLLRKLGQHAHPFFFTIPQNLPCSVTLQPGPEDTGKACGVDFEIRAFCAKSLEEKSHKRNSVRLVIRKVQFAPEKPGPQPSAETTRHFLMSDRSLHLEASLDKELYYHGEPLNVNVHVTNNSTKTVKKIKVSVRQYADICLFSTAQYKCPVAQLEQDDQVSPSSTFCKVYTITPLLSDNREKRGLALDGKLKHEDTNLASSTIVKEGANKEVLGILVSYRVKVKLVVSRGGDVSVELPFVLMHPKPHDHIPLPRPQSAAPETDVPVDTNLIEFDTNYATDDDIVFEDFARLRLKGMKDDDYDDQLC
Assay metric: EC50

N#Cc1ccc(Oc2nccc(N3Cc4ccccc4S3(=O)=O)n2)cn1 :: > 10 µM
CNC(=O)c1cc(N2Cc3ccccc3S2(=O)=O)nc(Oc2cccnc2)n1 :: > 10 µM
CN1CCN(c2cc(N3Cc4ccccc4S3(=O)=O)nc(Oc3cccnc3)n2)CC1 :: > 31.6 µM
Cc1cc(C)c(Oc2nccc(N3Cc4ccccc4S3(=O)=O)n2)cn1 :: > 10 µM
CC(=O)N1CCC(Oc2nccc(N3Cc4ccccc4S3(=O)=O)n2)CC1 :: > 10 µM
O=S1(=O)c2ccccc2CN1c1ccnc(Oc2ccc(Cl)nc2)n1 :: > 10 µM
CC(=O)N1CCCC(Oc2nccc(N3Cc4ccccc4S3(=O)=O)n2)C1 (stereo not shown) :: > 10 µM
O=S1(=O)c2ccccc2CN1c1ccnc(OC2CCNCC2)n1 :: > 10 µM
CS(=O)(=O)N1CC(Oc2nccc(N3Cc4ccccc4S3(=O)=O)n2)C1 :: > 31.6 µM
O=S1(=O)c2cccc(Cl)c2CN1c1ccnc(Oc2cccnc2)n1 :: > 31.6 µM
COc1ccc2c(c1)CN(c1cccc(Oc3cccnc3)n1)S2(=O)=O :: > 31.6 µM
O=C1c2ncccc2CN1c1ccnc(Oc2cccnc2)n1 :: > 31.6 µM
O=S1(=O)c2ccccc2CN1c1ccnc(Oc2ccc(Oc3ccccc3)cc2)n1 :: > 31.6 µM

====

Experimental system: human GPR120 (Homo sapiens)
Construct: expressed in transfected cells; host or cells: CHO-K1 coexpressing Gα16 and mitochondrial apoaequorin
Protocol description: Human GPR120 Calcium-Release Assay (aequorin luminescence, CHO-K1 cells)
Type: cell-based
Cond: pEC50=−log(EC50) from curve fit; short variant of human GPR120 in CHO-K1 with Gα16 and apoaequorin; read-out: Ca2+ pEC50 (converted)
Sequence (Q5NUL3 whole entry): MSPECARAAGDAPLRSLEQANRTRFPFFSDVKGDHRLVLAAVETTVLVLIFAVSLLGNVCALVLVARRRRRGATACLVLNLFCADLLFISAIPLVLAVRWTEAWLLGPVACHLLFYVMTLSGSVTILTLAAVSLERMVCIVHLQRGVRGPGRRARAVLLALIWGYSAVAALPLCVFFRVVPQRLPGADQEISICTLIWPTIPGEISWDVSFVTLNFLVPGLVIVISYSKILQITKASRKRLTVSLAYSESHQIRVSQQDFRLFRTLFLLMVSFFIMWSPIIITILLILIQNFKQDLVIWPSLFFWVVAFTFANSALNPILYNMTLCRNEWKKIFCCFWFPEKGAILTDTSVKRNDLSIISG
Attribute: EC50
Assay metric: EC50

CN1CCC(Oc2nccc(N3Cc4ccccc4S3(=O)=O)n2)C1 (stereo not shown) [Compound 63] :: > 100 µM
O=S1(=O)c2ccccc2CN1c1ccnc(Oc2cccc(Cl)c2)n1 [Compound 22] :: > 100 µM
O=S1(=O)c2ccccc2CN1c1cccc(Oc2cccc(Cl)c2)n1 [Compound 123] :: > 100 µM
COc1cc(Oc2ccc(F)cc2)nc(N2Cc3ccccc3S2(=O)=O)n1 [Compound 101] :: > 0.1 µM
CN1CC(Oc2nccc(N3Cc4ccccc4S3(=O)=O)n2)C1 [Compound 61] :: > 100 µM
COc1cc(Oc2ccc(Cl)cc2)nc(N2Cc3ccccc3S2(=O)=O)n1 [Compound 96] :: > 10 µM
Cc1cc(Oc2nccc(N3Cc4ccccc4S3(=O)=O)n2)ccc1Cl [Compound 35] :: > 100 µM
